Biological target: Histone deacetylase 4 (Homo sapiens)
Sequence (P56524 whole entry): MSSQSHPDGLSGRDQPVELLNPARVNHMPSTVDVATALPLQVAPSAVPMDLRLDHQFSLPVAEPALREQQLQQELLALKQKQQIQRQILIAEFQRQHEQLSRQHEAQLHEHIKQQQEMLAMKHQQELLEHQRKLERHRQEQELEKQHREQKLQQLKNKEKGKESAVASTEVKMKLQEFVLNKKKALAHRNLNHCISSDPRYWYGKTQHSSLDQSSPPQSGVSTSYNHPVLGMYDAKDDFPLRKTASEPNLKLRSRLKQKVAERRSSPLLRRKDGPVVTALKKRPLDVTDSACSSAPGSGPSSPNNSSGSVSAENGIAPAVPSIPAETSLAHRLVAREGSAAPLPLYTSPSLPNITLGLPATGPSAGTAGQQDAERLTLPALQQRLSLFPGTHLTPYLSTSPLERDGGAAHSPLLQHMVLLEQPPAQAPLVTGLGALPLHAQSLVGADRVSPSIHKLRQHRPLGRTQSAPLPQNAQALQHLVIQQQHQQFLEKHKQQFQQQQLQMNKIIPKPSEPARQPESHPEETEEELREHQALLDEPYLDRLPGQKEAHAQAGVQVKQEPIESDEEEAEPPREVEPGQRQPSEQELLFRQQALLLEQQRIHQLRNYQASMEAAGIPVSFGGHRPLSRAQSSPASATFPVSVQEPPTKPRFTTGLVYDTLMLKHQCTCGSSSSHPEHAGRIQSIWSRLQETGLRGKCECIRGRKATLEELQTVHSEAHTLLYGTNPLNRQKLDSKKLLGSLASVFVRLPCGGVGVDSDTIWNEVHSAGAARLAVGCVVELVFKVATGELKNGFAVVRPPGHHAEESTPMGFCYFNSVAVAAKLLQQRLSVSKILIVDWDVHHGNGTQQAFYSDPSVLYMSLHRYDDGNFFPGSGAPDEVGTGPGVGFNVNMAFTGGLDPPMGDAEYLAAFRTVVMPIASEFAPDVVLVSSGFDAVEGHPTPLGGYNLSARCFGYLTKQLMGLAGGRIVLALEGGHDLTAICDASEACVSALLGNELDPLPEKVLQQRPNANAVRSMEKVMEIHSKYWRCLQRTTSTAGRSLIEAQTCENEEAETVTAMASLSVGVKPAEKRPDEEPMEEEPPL
readout: pIC50
Remember, pIC50 is on a log scale: it is -log10 of the molar concentration.

// query pIC50 value for entry O=C(CCCCCCOc1cccc2cccnc12)NO
4.71

* * *

Hi there, I'd appreciate the recorded IC50 at 72 h for every entry that follows.
Assay: in vitro
Conditions: human, MRC5 cells
Description: Antiproliferative activity against human MRC5 cells assessed as inhibition of cell growth incubated for 72 hrs by MTT assay
# output: bare number, implied unit µM

Fill in the blank: the reported IC50 at 72 h of O=C(/C=C/c1ccc(COc2ccc(Cl)c3cccnc23)cc1)NO is ____.
6.94

Reported IC50 at 72 h, molecule Oc1ccc(Cl)c2cccnc12 [CLOXYQUIN] : ____
20.4

Tell me the measured IC50 at 72 h of O=C(CCCCCCOc1ccc(Cl)c2cccnc12)NO , please.
8.07

Using the record for O=C(NO)c1ccc(COc2cccc3cccnc23)cc1 , report its IC50 at 72 h.
18.4

Item under review: O=C(CCCCCCOc1cccc2cccnc12)NO . Reported IC50 at 72 h?
3.64

Which measured IC50 at 72 h value corresponds to O=C(CCCCCOc1ccc(Cl)c2cccnc12)NO ?
42.1

I am curious: what IC50 at 72 h value has been reported for O=C(NO)c1ccccc1COc1ccc(Cl)c2cccnc12 ?
21.3

Entry O=C(CCCOc1ccc(Cl)c2cccnc12)NO has what IC50 at 72 h?
19.5

# query: IC50 at 72 h of entry O=C(CCCCCOc1cccc2cccnc12)NO
28.1

// IC50 at 72 h lookup, key: O=C(/C=C/c1ccc(COc2cccc3cccnc23)cc1)NO
7.34

Fill in the blank: the reported IC50 at 72 h of O=C(NO)c1ccc(CCOc2ccc(Cl)c3cccnc23)cc1 is ____.
23.3

Returns the measured IC50 at 72 h for the input molecule. Input: O=C(NO)c1ccc(CCOc2cccc3cccnc23)cc1
29

* * *

Experiment: in vitro
Conditions: human, MRC5 cells
Record form. Attribute: IC50 at 72 h. Fill in for each entry.

Any idea what IC50 at 72 h was measured for O=C(CCCOc1cccc2cccnc12)NO ?
> 50 µM

Dear colleague, I am looking for the recorded IC50 at 72 h of the following compound: O=C(CCc1ccc(COc2ccc(Cl)c3cccnc23)cc1)NO
> 50 µM

Dear colleague, I am looking for the recorded IC50 at 72 h of the following compound: O=C(NO)c1cccc(COc2cccc3cccnc23)c1
> 50 µM

Entry O=C(CCCCOc1ccc(Cl)c2cccnc12)NO : reported IC50 at 72 h = ?
> 50 µM

Field request: IC50 at 72 h | item: O=C(NO)c1ccccc1COc1cccc2cccnc12
> 50 µM

// lookup IC50 at 72 h for O=C(CCCCOc1cccc2cccnc12)NO
> 50 µM

Fill in the blank: the reported IC50 at 72 h of O=C(NO)c1ccc(COc2ccc(Cl)c3cccnc23)cc1 is ____.
> 50 µM

Which IC50 at 72 h reading was recorded for the compound O=C(NO)c1cccc(COc2ccc(Cl)c3cccnc23)c1 ?
> 50 µM

May I ask what IC50 at 72 h has been recorded for O=C(Cc1ccc(COc2cccc3cccnc23)cc1)NO ?
> 50 µM
